T/C by entry:
# Test system: L1210 leukemia ip in BDF1 mice, survival T/C
# method: NCI In Vivo Anticancer Drug Screen. Data for tumor model L1210 Leukemia (intraperitoneal) in B6D2F1 (BDF1) mice
# condition-notes: endpoint: mean survival time; dose: 100.0 mg/kg/injection; schedule: Q01DX009 (ip); vehicle: Klucel (hydroxypropylcellulose) (HPC); higher = longer survival
Inconclusive results and toxic doses are left out.

structure_notation=Cc1ccc(NC(=O)Oc2ccc(Cl)cc2Cl)cc1NC(=O)Oc1ccc(Cl)cc1Cl obs_value="89 % of control"

IN: Using the record for O=C(Nc1ccc(Cl)c(Cl)c1)Oc1ccc(Cl)cc1C(=O)Nc1ccccc1 , report its T/C.
OUT: 100 % of control

IN: Entry under review: Cc1cc(C)c(N(C)C(=O)CCC(=O)O)c(Br)c1 . Reported T/C?
OUT: 89 % of control

IN: I would be grateful if you could share the reported T/C for O=C(Nc1ccc(Cl)cc1)Nc1cccc2ccccc12 .
OUT: 91 % of control
